// provenance: patent US6552080B1

system: Puccinia recondita; assay: Fungicidal activity against Wheat Leaf Rust (WLR) disease; type: in vivo; conditions: Wheat Leaf Rust; concentration 2 ppm
Collected WLR (Fungicidal Activities, C.V.) values appear next to each entry.
measured parameter: WLR (Fungicidal Activities, C.V.) (%)

                     structure_smiles_string  measured_value
 0  COC=C(C(=O)OC)c1ccccc1CON=Cc1cccc(OC(F)=Cc2ccc(C)cc2)c1              96
 1  CCc1ccc(C=C(F)Oc2cccc(C(C)=NOCc3ccccc3C(=NOC)C(=O)OC)c2)cc1              97
 2  CON=C(C(=O)OC)c1ccccc1CON=C(C)c1cccc(OC(F)=Cc2cccc(OC)c2)c1              98
 3  CNC(=O)C(=NOC)c1ccccc1CON=Cc1cccc(OC(F)=Cc2ccc(F)cc2)c1              37
 4  COC=C(C(=O)OC)c1ccccc1CON=Cc1cccc(OC(F)=Cc2cc(C)cc(C)c2)c1              96
 5  CCc1ccc(C(=C(F)Oc2cccc(C(C)=NOCc3ccccc3C(=COC)C(=O)OC)c2)C(F)(F)F)cc1              83
 6  COC=C(C(=O)OC)c1ccccc1CON=C(C)c1cccc(OC(F)=C(c2ccccc2)C(F)(F)F)c1              95
 7  COC=C(C(=O)OC)c1ccccc1CON=Cc1cccc(OC(F)=Cc2ccc(OC)cc2)c1              95
 8  COC=C(C(=O)OC)c1ccccc1CON=C(C)c1cccc(OC(F)=C(c2ccc(C)cc2)C(F)(F)F)c1              86
 9  COC=C(C(=O)OC)c1ccccc1CON=C(C)c1cccc(OC(F)=C(c2ccc(C)c(C)c2)C(F)(F)F)c1              91
10  CNC(=O)C(=COC)c1ccccc1CON=C(C)c1cccc(OC(F)=Cc2ccc(C)cc2)c1              27
11  CCc1ccc(C=C(F)Oc2cccc(C=NOCc3ccccc3C(=COC)C(=O)OC)c2)cc1              98
12  COC=C(C(=O)OC)c1ccccc1CON=C(C)c1cccc(OC(F)=C(c2cccc(F)c2)C(F)(F)F)c1              94
13  CCc1ccc(C=C(F)Oc2cccc(C(C)=NOCc3ccccc3C(=COC)C(=O)OC)c2)cc1              95
14  COC=C(C(=O)OC)c1ccccc1CON=C(C)c1cccc(OC(F)=C(c2cccc(C)c2)C(F)(F)F)c1              86
15  COC=C(C(=O)OC)c1ccccc1CON=Cc1cccc(OC(F)=Cc2ccc(Cl)cc2)c1              96
16  CON=C(C(=O)OC)c1ccccc1CON=C(C)c1cccc(OC(F)=Cc2cccc(C)c2)c1              99
17  CNC(=O)C(=NOC)c1ccccc1CON=Cc1cccc(OC(F)=Cc2ccc(C)c(C)c2)c1               3
18  COC=C(C(=O)OC)c1ccccc1CON=Cc1cccc(OC(F)=Cc2cccc(Cl)c2)c1              99
19  COC=C(C(=O)OC)c1ccccc1CON=C(C)c1cccc(OC(F)=Cc2ccc(C)cc2)c1              98
20  CON=C(C(=O)OC)c1ccccc1CON=C(C)c1cccc(OC(F)=Cc2cc(C)cc(C)c2)c1              99
21  CNC(=O)C(=NOC)c1ccccc1CON=Cc1cccc(OC(F)=C(c2cccc(OC)c2)C(F)(F)F)c1              36
22  CNC(=O)C(=COC)c1ccccc1CON=C(C)c1cccc(OC(F)=Cc2cccc(Cl)c2)c1              83
23  CO/C=C(/C(=O)OC)c1ccccc1CON=C(C)c1cccc(OC(F)=Cc2ccccc2)c1              99
24  COC=C(C(=O)OC)c1ccccc1CON=Cc1cccc(OC(F)=C(c2ccc(Br)cc2)C(F)(F)F)c1              91
25  CON=C(C(=O)OC)c1ccccc1CON=Cc1cccc(OC(F)=C(c2ccccc2)C(F)(F)F)c1              98
26  CON=C(C(=O)OC)c1ccccc1CON=C(C)c1cccc(OC(F)=Cc2cccc(Cl)c2)c1              98
27  COC=C(C(=O)OC)c1ccccc1CON=Cc1cccc(OC(F)=Cc2cccc(F)c2)c1              97
28  CNC(=O)/C(=N/OC)c1ccccc1CON=C(C)c1cccc(OC(F)=Cc2ccccc2)c1             100
29  CON=C(C(=O)OC)c1ccccc1CON=C(C)c1cccc(OC(F)=Cc2ccc(Cl)cc2)c1             100
30  CCc1ccc(C=C(F)Oc2cccc(C=NOCc3ccccc3C(=NOC)C(=O)NC)c2)cc1              10

---

system: Phytophthora infestans; format: in vivo; conditions: 50 ppm
Fungicidal Activities TLB (C.V.) values for the compounds below.
measured parameter: Fungicidal Activities TLB (C.V.) (%)

>>> print(df.to_string())
                                   compound                measured_parameter  measured_value
0  CON=C(C(=O)OC)c1ccccc1CON=C(C)c1cccc(OC(F)=C(c2ccc(Br)cc2)C(F)(F)F)c1 [Compound 187]  Fungicidal Activities TLB (C.V.)               0
1  COC=C(C(=O)OC)c1ccccc1CON=C(C)c1cccc(OC(F)=C(c2ccc(Br)cc2)C(F)(F)F)c1 [Compound 165]  Fungicidal Activities TLB (C.V.)               6
2  CON=C(C(=O)OC)c1ccccc1CON=C(C)c1cccc(OC(F)=C(c2cc(Cl)cc(Cl)c2)C(F)(F)F)c1 [Compound 186]  Fungicidal Activities TLB (C.V.)               0
3  CON=C(C(=O)OC)c1ccccc1CON=C(C)c1cccc(OC(F)=C(c2ccccc2)C(F)(F)F)c1 [Compound 173]  Fungicidal Activities TLB (C.V.)              20
4  COC=C(C(=O)OC)c1ccccc1CON=C(C)c1cccc(OC(F)=C(c2cc(Cl)cc(Cl)c2)C(F)(F)F)c1 [Compound 164]  Fungicidal Activities TLB (C.V.)               0
5  CNC(=O)C(=NOC)c1ccccc1CON=C(C)c1cccc(OC(F)=C(c2cccc(OC)c2)C(F)(F)F)c1 [Compound 197]  Fungicidal Activities TLB (C.V.)              50

---

Documented WLR (Fungicidal Activities, C.V.) across a set of molecules
test system: Puccinia recondita; experiment: Fungicidal activity against Wheat Leaf Rust (WLR) disease; assay type: in vivo; settings: Wheat Leaf Rust; concentration 2 ppm
measured parameter: WLR (Fungicidal Activities, C.V.) (%)

In [3]: df
Out[3]:
                    structure_smiles_string                 measured_parameter  measured_value
0  CON=C(C(=O)OC)c1ccccc1CON=Cc1cccc(OC(F)=C(c2ccc(F)cc2)C(F)(F)F)c1  WLR (Fungicidal Activities, C.V.)              94
1  CNC(=O)C(=NOC)c1ccccc1CON=Cc1cccc(OC(F)=Cc2cccc(OC)c2)c1  WLR (Fungicidal Activities, C.V.)              83
2  COC=C(C(=O)OC)c1ccccc1CON=Cc1cccc(OC(F)=C(c2ccc(OC)cc2)C(F)(F)F)c1  WLR (Fungicidal Activities, C.V.)              80
3  CON=C(C(=O)OC)c1ccccc1CON=C(C)c1cccc(OC(F)=Cc2ccc(C)cc2)c1  WLR (Fungicidal Activities, C.V.)              99
4  COC=C(C(=O)OC)c1ccccc1CON=C(C)c1cccc(OC(F)=C(c2cc(C)cc(C)c2)C(F)(F)F)c1  WLR (Fungicidal Activities, C.V.)              73
5  CCOc1ccc(C=C(F)Oc2cccc(C(C)=NOCc3ccccc3C(=NOC)C(=O)NC)c2)cc1  WLR (Fungicidal Activities, C.V.)              99
6  CON=C(C(=O)OC)c1ccccc1CON=Cc1cccc(OC(F)=Cc2ccc(C)cc2)c1  WLR (Fungicidal Activities, C.V.)              95

---

tested on: Erysiphae graminis; assay: Fungicidal activity against Barley Powdery Mildew (BPM) disease; assay type: in vivo; conditions: Barley Powdery Mildew; concentration 10 ppm
Below: a set of entries, each annotated with reported BPM (Fungicidal Activities, C.V.).
measured parameter: BPM (Fungicidal Activities, C.V.) (%)

>>> print(df.to_string())
                     structure_smiles_string                 measured_parameter  units_symbol  measured_value
 0  CON=C(C(=O)OC)c1ccccc1CON=C(C)c1cccc(OC(F)=Cc2cccc(C)c2)c1  BPM (Fungicidal Activities, C.V.)             %             100
 1  COC=C(C(=O)OC)c1ccccc1CON=Cc1cccc(OC(F)=Cc2cc(C)cc(C)c2)c1  BPM (Fungicidal Activities, C.V.)             %             100
 2  COC=C(C(=O)OC)c1ccccc1CON=C(C)c1cccc(OC(F)=Cc2ccc(F)cc2)c1  BPM (Fungicidal Activities, C.V.)             %             100
 3  COC=C(C(=O)OC)c1ccccc1CON=C(C)c1cccc(OC(F)=C(c2ccc(C)c(C)c2)C(F)(F)F)c1  BPM (Fungicidal Activities, C.V.)             %              99
 4  COC=C(C(=O)OC)c1ccccc1CON=C(C)c1cccc(OC(F)=C(c2cccc(F)c2)C(F)(F)F)c1  BPM (Fungicidal Activities, C.V.)             %             100
 5  COC=C(C(=O)OC)c1ccccc1CON=Cc1cccc(OC(F)=Cc2cccc(C)c2)c1  BPM (Fungicidal Activities, C.V.)             %              99
 6  CO/N=C(/C(=O)OC)c1ccccc1CON=C(C)c1cccc(OC(F)=Cc2ccccc2)c1  BPM (Fungicidal Activities, C.V.)             %             100
 7  COC=C(C(=O)OC)c1ccccc1CON=Cc1cccc(OC(F)=Cc2cccc(Cl)c2)c1  BPM (Fungicidal Activities, C.V.)             %             100
 8  COC=C(C(=O)OC)c1ccccc1CON=Cc1cccc(OC(F)=C(c2ccc(F)cc2)C(F)(F)F)c1  BPM (Fungicidal Activities, C.V.)             %              96
 9  CO/C=C(/C(=O)OC)c1ccccc1CON=Cc1cccc(OC(F)=Cc2ccccc2)c1  BPM (Fungicidal Activities, C.V.)             %             100
10  COC=C(C(=O)OC)c1ccccc1CON=C(C)c1cccc(OC(F)=C(c2ccc(OC)cc2)C(F)(F)F)c1  BPM (Fungicidal Activities, C.V.)             %             100
11  COC=C(C(=O)OC)c1ccccc1CON=Cc1cccc(OC(F)=Cc2ccc(F)cc2)c1  BPM (Fungicidal Activities, C.V.)             %             100
12  COC=C(C(=O)OC)c1ccccc1CON=C(C)c1cccc(OC(F)=C(c2cc(C)cc(C)c2)C(F)(F)F)c1  BPM (Fungicidal Activities, C.V.)             %              98
13  COC=C(C(=O)OC)c1ccccc1CON=C(C)c1cccc(OC(F)=Cc2ccc(OC)cc2)c1  BPM (Fungicidal Activities, C.V.)             %             100
14  COC=C(C(=O)OC)c1ccccc1CON=C(C)c1cccc(OC(F)=C(c2ccccc2)C(F)(F)F)c1  BPM (Fungicidal Activities, C.V.)             %             100
